# Test system: ATP;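 also: ATP exposure 15 min at 22 °C before imaging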
# assay: switch fluorescence ratio, 500 uM ATP over buffer (Cy3 cluster intensity, sum of 5 cycles each) (fold (ratio)); higher = stronger signal-on switching upon ATP binding; sequences stand for … in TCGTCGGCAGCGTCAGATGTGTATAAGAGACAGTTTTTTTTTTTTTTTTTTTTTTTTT…TC
# measurement parameters: aptamer strand: ATP DNA aptamer (quencher-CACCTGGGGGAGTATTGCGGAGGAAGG + anchor), 100 nM annealed; ATP concentration: 500 uM
quantity name: switch fluorescence ratio
Please reply with the number alone, leaving off any unit.

Example entries and their recorded answers appear below.
- TAACTATATA: 1.06
- ATGGTGGGGA: 1.03
- TACGGTGGGC: 0.977

// switching to the query sequence
Recorded switch fluorescence ratio of TTGAAGTTCG , please.
0.986
